Quick reference for EC50 among some compounds
- test.target: RNA-binding protein pos-1 (Caenorhabditis elegans)
- Sequence (G5EF15 whole entry, the tested form may be a part): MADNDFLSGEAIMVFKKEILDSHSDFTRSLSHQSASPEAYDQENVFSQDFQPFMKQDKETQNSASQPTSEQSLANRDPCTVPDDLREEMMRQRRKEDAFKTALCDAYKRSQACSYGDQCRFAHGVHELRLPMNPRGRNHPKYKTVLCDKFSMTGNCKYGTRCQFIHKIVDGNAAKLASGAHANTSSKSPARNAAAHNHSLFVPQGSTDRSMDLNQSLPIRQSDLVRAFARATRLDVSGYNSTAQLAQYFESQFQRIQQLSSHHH
- procedure.text: inhibitors of POS-1/mex-3 RNA binding, dose response, biochemical, fluorescence polarization (AID 1964);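 further: purified POS-1 fused to maltose binding protein made in E. coli; potency of compounds blocking POS-1 binding to fluorescent RNA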
Calls of active or inactive are those of the source.

In the examples that follow, each entry is paired with its recorded EC50.
>  <compound>
CCOC(=O)c1ccc(-n2c(CCC(=O)O)ccc2-c2ccccc2)cc1

>  <endpoint.value>
> 300 µM (not active)

$$$$
>  <compound>
CCOC(=O)c1ccc(-c2ccc(C=O)o2)cc1

>  <endpoint.value>
43.6 µM (active)

$$$$
>  <compound>
CC(=O)NCCNc1ccc([N+](=O)[O-])cc1C#N

>  <endpoint.value>
> 300 µM (not active)

$$$$
>  <compound>
CC(=O)N(C)c1ccc(/N=N/c2c(C)[nH]n(C(N)=S)c2=O)cc1

>  <endpoint.value>
> 300 µM (not active)

$$$$

Prompt: Value lookup for EC50; key = `Cc1cc(C=O)c(C)n1-c1cc(C(=O)O)cc(C(=O)O)c1`
Completion: > 300 µM (not active)

Prompt: Thanks! And `Oc1c(/C=N/c2ccccc2Cl)[nH]c2ccccc12` ?
Completion: > 300 µM (not active)

Prompt: Thanks! And `C(=N\N=C(\Nc1ccccc1)c1ccccn1)/c1ccccn1` ?
Completion: > 300 µM (inconclusive)

Prompt: Thanks! And `N#CC(C#N)=Cc1ccc(-c2ccc(S(=O)(=O)NC(=N)N)cc2)o1` ?
Completion: > 300 µM (not active)

Prompt: Thanks! And CCCCC1=CC2=CC(=O)C(C)(OC(=O)c3cnc4ccccc4n3)C(=O)C2=CO1 (stereo not given) ?
Completion: 19.9 µM (active)

---

Quick reference for IC50 among some molecules
- test.target: DNA dC->dU-editing enzyme APOBEC-3G (Homo sapiens)
- Sequence (Q9HC16 whole entry): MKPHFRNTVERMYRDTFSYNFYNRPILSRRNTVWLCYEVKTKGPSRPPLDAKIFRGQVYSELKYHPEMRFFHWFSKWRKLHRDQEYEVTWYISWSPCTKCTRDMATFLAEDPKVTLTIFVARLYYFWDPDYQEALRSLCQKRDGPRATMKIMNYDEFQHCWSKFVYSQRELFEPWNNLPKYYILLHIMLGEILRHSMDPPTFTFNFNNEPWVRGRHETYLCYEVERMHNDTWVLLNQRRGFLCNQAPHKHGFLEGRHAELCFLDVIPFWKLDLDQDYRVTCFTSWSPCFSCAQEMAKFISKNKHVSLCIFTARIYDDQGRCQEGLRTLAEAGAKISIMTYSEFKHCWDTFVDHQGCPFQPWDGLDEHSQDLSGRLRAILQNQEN
- procedure.text: Dose Response confirmation of small molecule APOBEC3G DNA Deaminase Inhibitors via a fluorescence-based single-stranded DNA deaminase assay. [Related pubchem assays (depositor defined):AID493012, AID493028]
- Type: functional
Activity calls are given as the source filed them.

In the examples that follow, each entry is paired with its recorded IC50.
>  <molecule>
CCc1ccc(N2CSC3=C(C#N)C(c4cccs4)CC(=O)N3C2)cc1 (centres undefined)

>  <IC50>
8.18 µM (active)

$$$$
>  <molecule>
Cc1ccc(/C=N/n2c(S)nnc2-c2ccco2)cc1

>  <IC50>
3.02 µM (active)

$$$$
>  <molecule>
Cc1noc(C)c1CSc1nc2cc(S(=O)(=O)N3CCOCC3)ccc2o1

>  <IC50>
50.7 µM (active)

$$$$

Prompt: Value lookup for IC50; key = `Cc1cc(-c2nnc(S)n2/N=C/c2cccc([N+](=O)[O-])c2)[nH]n1`
Completion: 3.68 µM (active)

---

- procedure.text: Luminescence Cell-Based Dose Retest to Confirm Inhibitors of Cancer Stem Cells. [Related pubchem assays (depositor defined):AID2717, AID2721]
- Format: functional
- stated.conditions: Homo sapiens
Calls of active or inactive are those of the source.
parameter: AC50

In the examples that follow, each entry is paired with its recorded AC50.
>  <molecular.string>
C1=C(c2sc3ccccc3c2-c2ccc(OCCN3CCOCC3)cc2)CCCC1

>  <AC50>
2.71 µM (active)

$$$$
>  <molecular.string>
CC(C)c1ccc(N2C(=O)NC(=O)/C(=C\C=C\c3ccco3)C2=O)cc1

>  <AC50>
1.23 µM (active)

$$$$
>  <molecular.string>
O=C(N/N=C/c1ccc(O)cc1O)/C(=C/c1ccccc1)CCO

>  <AC50>
6.81 µM (active)

$$$$

# evaluate next
Prompt: Value lookup for AC50; key = `O=C(c1ccco1)c1nnn(Cc2ccccc2)c1-c1ccccc1`
Completion: 3.72 µM (active)

---

Quick reference for IC50 among some compounds
- test.target: SUMO-activating enzyme (Homo sapiens, UniProt Q9UBT2)
- Sequence (Q9UBE0 whole entry): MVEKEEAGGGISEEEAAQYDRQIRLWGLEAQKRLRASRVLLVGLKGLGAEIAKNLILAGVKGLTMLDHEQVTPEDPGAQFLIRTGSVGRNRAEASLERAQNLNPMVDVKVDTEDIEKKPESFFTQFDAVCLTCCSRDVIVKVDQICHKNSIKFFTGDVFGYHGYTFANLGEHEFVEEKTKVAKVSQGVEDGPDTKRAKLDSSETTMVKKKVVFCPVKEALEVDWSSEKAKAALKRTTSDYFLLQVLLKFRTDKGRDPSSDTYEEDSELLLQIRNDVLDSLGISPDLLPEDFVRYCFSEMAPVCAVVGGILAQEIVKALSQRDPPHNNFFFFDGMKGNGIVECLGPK
- Sequence (Q9UBT2 whole entry): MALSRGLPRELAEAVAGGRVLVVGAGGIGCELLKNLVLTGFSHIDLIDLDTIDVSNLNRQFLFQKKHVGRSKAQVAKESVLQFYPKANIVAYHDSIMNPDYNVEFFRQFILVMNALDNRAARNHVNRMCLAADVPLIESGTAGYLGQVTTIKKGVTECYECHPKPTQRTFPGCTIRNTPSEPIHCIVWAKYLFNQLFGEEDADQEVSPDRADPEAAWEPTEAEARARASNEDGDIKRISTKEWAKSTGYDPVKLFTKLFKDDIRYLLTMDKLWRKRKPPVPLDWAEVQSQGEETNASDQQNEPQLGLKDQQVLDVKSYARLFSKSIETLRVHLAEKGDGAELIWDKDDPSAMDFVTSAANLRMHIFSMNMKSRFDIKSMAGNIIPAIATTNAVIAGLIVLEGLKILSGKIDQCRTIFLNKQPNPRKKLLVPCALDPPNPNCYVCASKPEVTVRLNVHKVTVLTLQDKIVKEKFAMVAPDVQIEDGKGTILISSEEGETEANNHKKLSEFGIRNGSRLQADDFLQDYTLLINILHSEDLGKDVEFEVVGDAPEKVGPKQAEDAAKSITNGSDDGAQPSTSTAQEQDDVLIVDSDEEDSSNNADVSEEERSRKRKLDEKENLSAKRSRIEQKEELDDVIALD
- procedure.text: SUMOylation inhibitor hit validation, confirmation, SUMOylation inhibitor project, biochemical, AlphaScreen (AID 2018)
- Format: functional
Calls of active or inactive are those of the source.

In the examples that follow, each entry is paired with its recorded IC50.
>  <molecular.string>
CN(C)c1cc(N/N=C/c2ccc(Cl)cc2)nc(N(C)C)n1

>  <endpoint.value>
1 µM (active)

$$$$
>  <molecular.string>
O=C(N/N=C/c1cc(Br)cc(Br)c1O)c1ccncc1

>  <endpoint.value>
5.03 µM (active)

$$$$
>  <molecular.string>
O=C1NC(=O)N(Cc2ccco2)C(=O)/C1=C\c1cccn1CCOc1ccc(Cl)cc1

>  <endpoint.value>
5.71 µM (active)

$$$$

# evaluate next
Prompt: Give recorded IC50 with SUMO-activating enzyme (Homo sapiens, UniProt Q9UBT2) for the following compound: `COc1cc(Br)c(C(=O)c2nccc3cc(OC)c(OC)cc23)cc1OC`
Completion: 0.42 µM (active)

---

- test.target: Kappa-type opioid receptor (Homo sapiens, UniProt P41145)
- Sequence (P41145 whole entry): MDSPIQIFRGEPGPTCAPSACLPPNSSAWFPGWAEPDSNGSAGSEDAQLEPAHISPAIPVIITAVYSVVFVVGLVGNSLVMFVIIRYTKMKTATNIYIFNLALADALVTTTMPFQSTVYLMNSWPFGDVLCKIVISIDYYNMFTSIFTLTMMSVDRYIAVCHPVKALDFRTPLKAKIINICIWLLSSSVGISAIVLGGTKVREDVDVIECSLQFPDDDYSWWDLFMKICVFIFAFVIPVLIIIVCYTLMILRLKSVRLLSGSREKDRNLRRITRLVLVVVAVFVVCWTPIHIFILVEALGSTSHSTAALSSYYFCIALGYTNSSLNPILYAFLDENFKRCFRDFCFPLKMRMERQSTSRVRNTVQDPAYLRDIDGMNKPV
- Type: functional
parameter: pIC50
// returns pIC50 (minus log10 of molar concentration), number only

Prompt: Give recorded pIC50 with Kappa-type opioid receptor (Homo sapiens, UniProt P41145) for the following compound: `COc1ccc(N2CCN(CCCNC(=O)Cn3c(=O)c4cccn4c4cccnc43)CC2)cc1`
Completion: 5.88

---

- test.target: UniProtKB Q9GZR1
- Sequence (Q9GZR1 whole entry): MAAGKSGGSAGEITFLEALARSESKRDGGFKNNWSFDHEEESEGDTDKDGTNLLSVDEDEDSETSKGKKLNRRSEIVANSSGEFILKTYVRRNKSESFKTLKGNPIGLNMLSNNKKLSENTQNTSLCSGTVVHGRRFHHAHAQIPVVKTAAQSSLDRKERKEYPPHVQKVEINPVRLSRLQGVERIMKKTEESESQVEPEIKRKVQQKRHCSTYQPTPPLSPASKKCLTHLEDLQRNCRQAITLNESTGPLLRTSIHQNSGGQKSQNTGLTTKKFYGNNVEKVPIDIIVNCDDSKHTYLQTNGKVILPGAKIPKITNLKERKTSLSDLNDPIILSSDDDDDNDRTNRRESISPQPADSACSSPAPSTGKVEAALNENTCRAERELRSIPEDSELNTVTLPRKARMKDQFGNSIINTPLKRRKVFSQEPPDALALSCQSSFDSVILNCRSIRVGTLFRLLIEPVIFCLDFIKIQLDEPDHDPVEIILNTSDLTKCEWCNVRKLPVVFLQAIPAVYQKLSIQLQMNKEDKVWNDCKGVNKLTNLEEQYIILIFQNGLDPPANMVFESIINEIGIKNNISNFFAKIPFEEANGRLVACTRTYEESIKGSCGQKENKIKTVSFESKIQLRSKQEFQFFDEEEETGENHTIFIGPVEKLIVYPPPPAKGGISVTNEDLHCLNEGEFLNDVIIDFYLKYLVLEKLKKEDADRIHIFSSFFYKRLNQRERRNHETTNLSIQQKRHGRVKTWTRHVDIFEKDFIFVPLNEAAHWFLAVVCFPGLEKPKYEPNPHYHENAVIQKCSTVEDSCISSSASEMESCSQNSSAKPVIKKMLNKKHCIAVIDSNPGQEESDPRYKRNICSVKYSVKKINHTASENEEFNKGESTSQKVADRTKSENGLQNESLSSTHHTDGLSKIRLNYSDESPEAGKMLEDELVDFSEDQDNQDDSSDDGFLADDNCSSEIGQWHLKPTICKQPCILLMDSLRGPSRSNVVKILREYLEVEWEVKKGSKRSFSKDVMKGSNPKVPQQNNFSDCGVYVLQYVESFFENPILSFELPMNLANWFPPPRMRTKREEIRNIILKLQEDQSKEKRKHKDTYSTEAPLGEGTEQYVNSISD
- procedure.text: SAR Analysis of small molecule inhibitors of Sentrin-specific protease 6 (SENP6) using a Luminescent assay. [Related pubchem assays (depositor defined):AID2582, AID2599]
- Assay type: functional
Activity calls are given as the source filed them.
Write down the outcome that applies. Available outcomes: T = active, F = inactive

Look over these answered cases.
>  <molecular.string>
C(/C=C/c1ccccc1)=N/Nc1cc(N2CCCC2)nc(N2CCCC2)n1

>  <test.target>
UniProtKB Q9GZR1

>  <cat>
T

$$$$
>  <molecular.string>
COc1ccc(/C=N/Nc2nc(NCc3ccccc3)nc(N(C)C)n2)cc1Br

>  <test.target>
UniProtKB Q9GZR1

>  <cat>
F

$$$$
>  <molecular.string>
CCOc1ccc(C(=O)Nc2ccc3ccccc3c2)cc1Br

>  <test.target>
UniProtKB Q9GZR1

>  <cat>
F

$$$$

From here, focus on the item given below.
Prompt: Recorded call for `COc1cc(Br)c(C(=O)c2nccc3cc(OC)c(OC)cc23)cc1OC` ?
Completion: T

---

- test.target: UniProtKB P00735
- procedure.text: thrombin inhibition, dose response, biochemical, fluorescence polarization, uHTS hits (AID 602369)
- Type: functional
Activity calls are given as the source filed them.
Write down the outcome that applies. Available outcomes: active, inactive

>  <molecular.string>
NC(=Nc1cccc2ccccc12)Nc1nc(O)c2c(n1)CCC2

>  <cat>
inactive

$$$$
>  <molecular.string>
O=C(NN1C(=O)/C(=C\c2ccc(O)c([N+](=O)[O-])c2)SC1=S)c1ccccc1Cl

>  <cat>
active

$$$$
>  <molecular.string>
CCN(CC)c1ccc(/C=N/NC(=O)c2cccc(S(=O)(=O)Nc3ccccc3OC)c2)cc1

>  <cat>
active

$$$$
>  <molecular.string>
COc1cc(/C=C2/C(=O)NN(c3ccc(Cl)cc3)C2=O)cc(Br)c1O

>  <cat>
active

$$$$

From here, focus on the item given below.
Prompt: Recorded call for `N=C1/C(=C\c2ccc(-c3cccc(Cl)c3)o2)C(=O)N=C2SC=C(c3ccccc3)N12` ?
Completion: active

---

- test.target: Carboxy-terminal domain RNA polymerase II polypeptide A small phosphatase 1 (Homo sapiens, UniProt Q9GZU7)
- Sequence (Q9GZU7 whole entry, the tested form may be a part): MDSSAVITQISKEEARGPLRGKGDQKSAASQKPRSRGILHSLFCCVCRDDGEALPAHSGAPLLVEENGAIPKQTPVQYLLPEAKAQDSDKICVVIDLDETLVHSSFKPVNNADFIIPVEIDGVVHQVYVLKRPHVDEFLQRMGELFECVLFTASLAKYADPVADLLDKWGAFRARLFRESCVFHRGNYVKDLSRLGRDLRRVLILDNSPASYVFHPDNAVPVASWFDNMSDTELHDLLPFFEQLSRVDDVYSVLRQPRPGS
- procedure.text: inhibitors of CTDSP1, concentration-response testing, biochemical assay, absorbance-based, actives from ultra-high-throughput screening (AID 540297)
- Assay type: functional
Active and inactive are the calls of the source.
parameter: IC50

In the examples that follow, each entry is paired with its recorded IC50.
>  <molecule>
Cc1ccc(C(=O)OCC(=O)c2ccc(CC(=O)N3CCOCC3)s2)cc1C

>  <IC50>
5.01 µM (active)

$$$$
>  <molecule>
Cc1cc(C=O)c(C)n1-c1cc(C(=O)O)cc(C(=O)O)c1

>  <IC50>
3.16 µM (active)

$$$$
>  <molecule>
O=C(/C=C/c1ccco1)N1CCN(S(=O)(=O)c2ccccc2)CC1

>  <IC50>
4.94 µM (active)

$$$$
>  <molecule>
CC[N+]1(CC)CC2CCC(C)(C1)C2(C)C (centres undefined)

>  <IC50>
12.1 µM (active)

$$$$
>  <molecule>
COc1ccc2nc(O)c(-c3noc(-c4ccccc4)n3)cc2c1

>  <IC50>
7.01 µM (active)

$$$$

Prompt: Value lookup for IC50; key = `COc1ccccc1N(CC(=O)NCc1ccco1)S(=O)(=O)c1ccc(C)cc1`
Completion: 5.17 µM (active)

Prompt: Thanks! And `COc1ccc(/C=N/NC(=O)c2cccc(NC(=O)c3ccc(Cl)cc3)c2)c(OC)c1` ?
Completion: 6.27 µM (active)

Prompt: Thanks! And `Cc1ccc(-n2nc(-c3ccco3)cc2C(=O)O)c(C)c1` ?
Completion: 4.94 µM (active)

Prompt: Thanks! And `O=C(/C=C/c1ccc(Cl)cc1)NC(=S)Nc1ccccc1C(=O)O` ?
Completion: 8.66 µM (active)
